Assayed target: c-Myc protein (Homo sapiens, UniProt P01106)
Construct: endogenous in cells; host or cells: HL60 cells
Sequence (P01106 whole entry): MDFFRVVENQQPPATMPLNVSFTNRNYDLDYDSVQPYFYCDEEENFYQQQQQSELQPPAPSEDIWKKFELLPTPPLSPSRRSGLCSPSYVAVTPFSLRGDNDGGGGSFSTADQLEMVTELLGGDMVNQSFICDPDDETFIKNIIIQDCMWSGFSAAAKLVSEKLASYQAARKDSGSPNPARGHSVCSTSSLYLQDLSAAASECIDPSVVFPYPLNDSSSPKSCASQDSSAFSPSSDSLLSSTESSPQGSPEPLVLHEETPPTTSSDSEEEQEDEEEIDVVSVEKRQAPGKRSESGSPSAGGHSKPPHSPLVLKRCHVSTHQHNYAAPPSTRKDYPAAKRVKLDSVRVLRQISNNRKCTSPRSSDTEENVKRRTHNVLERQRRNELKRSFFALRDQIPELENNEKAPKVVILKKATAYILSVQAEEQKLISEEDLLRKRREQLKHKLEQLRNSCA
Test description: Ability of compounds to degrade c-Myc protein in HL60 cells (ELISA)
Format: cell-based
Condition summary: HL-60, 1 μM compound, 24 h, read-out: HL60 cells Protein degradation rate (1 μM)
Readout type: inhibition at 1 µM

Solved entries (count: 10):
CN(CCc1cccc2ccccc12)Cc1ccc(CNC(=O)c2ccc3c(c2)C(=O)N(C2CCC(=O)NC2=O)C3=O)nc1 (stereo not shown) | 60 to 90%
O=C(Cn1c2ccccc2c2cccnc21)NCc1ccc(CNC(=O)c2ccc3c(c2)CN(C2CCC(=O)NC2=O)C3=O)c(F)c1 (stereo not shown) | 60 to 90%
O=C(Cc1cccc2ccc(F)cc12)NCc1ccc(CNC(=O)c2ccc3c(c2)CN(C2CCC(=O)NC2=O)C3=O)c(C(F)(F)F)c1 (stereo not shown) | 60 to 90%
CC(C)(NC(=O)c1ccc2c(c1)C(=O)N(C1CCC(=O)NC1=O)C2=O)c1ccc(CNC(=O)Cn2c3ccccc3c3cccnc32)cc1 (stereo not shown) | 60 to 90%
O=C(Cc1ccc2ccccc2c1)NCCCCCCNC(=O)c1ccc2c(c1)C(=O)N(C1CCC(=O)NC1=O)C2=O (stereo not shown) | 30 to 60%
O=C(Cc1c(F)ccc2ccccc12)NCc1ccc(CNCc2ccc3c(c2)CN(C2CCC(=O)NC2=O)C3=O)cc1 (stereo not shown) | 60 to 90%
O=C(Cn1c2ccccc2c2cccnc21)NCc1ccc(C(=O)NCc2ccc3c(c2)C(=O)N(C2CCC(=O)NC2=O)C3=O)cc1 (stereo not shown) | 60 to 90%
O=C1CCC(N2C(=O)c3ccc(C(=O)NCc4ccc(CNCCc5cccc6ccccc56)cc4)cc3C2=O)C(=O)N1 (stereo not shown) | 60 to 90%
O=C(Cc1cccc2ccccc12)NCc1ccc(CNC(=O)c2ccc3c(c2)CN(C2CCC(=O)NC2=O)C3=O)cc1 (stereo not shown) | 60 to 90%
O=C1CCC(N2C(=O)c3ccc(C(=O)NCc4ccc(CNC(=O)Nc5cccc6ccccc56)cc4)cc3C2=O)C(=O)N1 (stereo not shown) | 60 to 90%

query: Entry under review: O=C(Cn1c2ccccc2c2ccccc21)NC[C@H]1CC[C@H](CNC(=O)c2ccc3c(c2)C(=O)N(C2CCC(=O)NC2=O)C3=O)CC1 (stereo partly shown) . Reported inhibition at 1 µM?
result: 30 to 60%

query: What inhibition at 1 µM value was documented for this molecule, CN(CCn1c2ccccc2c2cccnc21)Cc1ccc(CNCc2ccc3c(c2)C(=O)N(C2CCC(=O)NC2=O)C3=O)cc1 (stereo not shown) ?
result: 60 to 90%

query: May I ask what inhibition at 1 µM has been recorded for O=C1CCC(N2C(=O)c3ccc(C(=O)NCc4ccc(CN(CCn5c6ccccc6c6cccnc65)C5CC5)cc4)cc3C2=O)C(=O)N1 (stereo not shown) ?
result: 60 to 90%

Data origin: patent US20240350643A1
